Quick reference for TGI among some molecules
- System: SF-268 CNS
- Experimental details: NCI tumour cell line growth inhibition, 48 h

Input: Output TGI of O=C(N/N=C1\CCc2ccccc21)N/N=C1\CCc2ccccc21
Output: > 100 µM

Input: Output TGI of CN(N=O)C(N)=NC(=O)c1ccccc1
Output: > 100 µM

Input: Output TGI of Nc1ccc(C(=O)O)c2[nH]c3ccccc3c(=O)c12
Output: > 100 µM

----------
Quick reference for TGI among some compounds
- Tested on: HOP-62 NSCLC
- Experimental details: NCI tumour cell line growth inhibition, 48 h

Below: 2 compounds and their reported TGI.
- Smiles input: "COc1cc(-c2cn(-c3ccc(Cl)cc3)c(=O)n2-c2ccccc2)cc(OC)c1OC"
  Tested on: "HOP-62 NSCLC"
  TGI: "> 100 µM"
- Smiles input: "CC(C)c1cccc(C(C)C)c1NC(=S)Nc1ccccc1"
  Tested on: "HOP-62 NSCLC"
  TGI: "> 100 µM"

Now examine the next entry.
Input: Output TGI of Cc1cc2c(cc1-c1cc3c(cc1C)C(C(C)C)=C(O)C(=O)/C3=C\Nc1cccc3c(N)cccc13)/C(=C/Nc1cccc3c(N)cccc13)C(=O)C(O)=C2C(C)C
Output: > 100 µM
